Target: Inadl_8, Q8NI35
Sequence (Q8NI35 1425-1530): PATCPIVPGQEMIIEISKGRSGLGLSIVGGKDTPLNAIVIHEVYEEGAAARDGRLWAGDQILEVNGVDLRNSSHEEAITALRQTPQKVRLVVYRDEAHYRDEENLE
Assay: holdup assay
Set-up: key: below the threshold = too weak to quantify, mostly under pKd 3.1 to 4
Conditions: plain residues with an end cap or a label only (N-terminal biotin on a linker: ado-ado)
assay readout: pKd

PYPTADHMLA [JUP, P14923] :: below the threshold
SLNANEVEWF [RNF130, Q86XS8] :: below the threshold
EDPRVEVTQF [SLC22A9, Q8IVM8] :: below the threshold
EDLEDEWEVI [TECPR2, O15040] :: below the threshold

Exercise: Give the reported pKd for this binder. QRPYRRGSEI [KCNJ18, B7U540]
Solution: 3.69

Exercise: Complete the entry with pKd for VLYPREGTEV [FOXI1, Q12951]
Solution: 3.82

Exercise: Return reported pKd. Input binder: GTGYDRKDYV [CLDN3, O15551]
Solution: 4.13

Exercise: Entry QSYPSKHDYV [CLDN18, P56856] needs its pKd filled in; supply it.
Solution: 4.22
